Tested on: TAB165
protocol_text: qHTS profiling for inhibitors of Plasmodium falciparum proliferation (AID 504749); further: nearly all actives have a fitted effect of over 60% in size
assay_conditions: P. falciparum in erythrocytes, SYBR Green DNA, 72 h; series mostly up to 28.7 µM
Description: NIH National Institute of Allergy and Infectious Diseases [NIAID] NIH Chemical Genomics Center [NCGC] […] Because mature erythrocytes lack DNA, only Plasmodium-derived DNA is detected. NCGC Assay Protocol Summary: The SYBR Green viability assay was adapted from a method described previously (Plouffe et al., 2008). […] The following morning, fluorescence intensity at 485(14) nm excitation and 535(25) nm emission wavelengths was measured on an EnVision (Perkin Elmer) plate reader. […]
Records with an inconclusive call do not appear. Active and inactive are the calls of the source. The call rests on the fitted dose curve; in most records, active means well fitted inhibition curve with a large enough effect; inconclusive means small, poorly fitted or top-dose-only effect; inactive means flat fitted curve, though single readings scatter.
Classes to choose from: active, inactive

# count of solved cases: 5
{"columns": ["molecule", "group"],
 "data": [
  ["CO/N=C(/C(=O)N[C@@H]1C(=O)N2C(C(=O)O)=CCS[C@H]12)c1csc(N)n1", "inactive"],
  ["C/C=C\\c1ccc(OC)cc1", "inactive"],
  ["CCN1/C(=C/C=C/C=C/c2sc3ccccc3[n+]2CC)Sc2ccccc21", "active"],
  ["CC(=O)OC1CC2CCC1(C)C2(C)C (stereo unspecified)", "inactive"],
  ["CC1CCC(C(C)C)C(OC(=O)c2ccccc2O)C1 (stereo unspecified)", "inactive"]
]}

Prompt: So what was the verdict on CC(C)CN(C[C@@H](OP(=O)(O)O)[C@H](Cc1ccccc1)NC(=O)O[C@@H]1CCOC1)S(=O)(=O)c1ccc(N)cc1 in this test?
Response: inactive
